selectivity ratio listing for selected compounds.
# assay-info: Selectivity index, ratio of IC50 for NRK-52E cells to ratio of IC50 for human HCT-116 cells
# Type: toxicity
# conditions: rat (NRK-52E), NRK-52E cells versus HCT-116 cells, read-out: Selectivity Index

{"columns": ["smiles-data", "selectivity ratio"],
 "data": [
  ["COc1cc(-c2nc3cc(C)ccc3[nH]2)ccc1OCC(=O)N1CCc2ccccc2C1", 8.6],
  ["COc1cc(-c2nc3cc(F)ccc3[nH]2)ccc1OCC(=O)N1CCc2ccccc21", 7.7]
]}

---

# assay-info: Selectivity index, ratio of IC50 for NRK-52E cells to ratio of IC50 for mouse B16-F10 cells
# Type: toxicity
# conditions: NRK-52E cells versus B16-F10 cells, read-out: Selectivity Index
endpoint-name: selectivity ratio

{"columns": ["smiles-data", "data-value"],
 "data": [
  ["COc1cc(-c2nc3cc(C)ccc3[nH]2)ccc1OCC(=O)N1CCc2ccccc2C1", 10.9],
  ["COc1cc(-c2nc3cc(F)ccc3[nH]2)ccc1OCC(=O)N1CCc2ccccc21", 17.4]
]}

---

# System: A549
# assay-info: Anticancer activity against human A549 cells assessed as inhibition in cell growth measured after 72 hrs by MTT assay
# Format: functional, cell-based
# conditions: A549, 72 h
pIC50: −log10 of the molar value.

{"columns": ["molecule", "pIC50"],
 "data": [
  ["COc1cc(-c2nc3ccccc3[nH]2)ccc1OCC(=O)N1CCOCC1", "< 4.70"],
  ["COc1cc(-c2nc3ccccc3[nH]2)ccc1OCC(=O)N1CCN(C(=O)OC(C)(C)C)CC1", "< 4.70"],
  ["COc1cc(-c2nc3cc(C)ccc3[nH]2)ccc1OCC(=O)N1CCCC1", "< 4.70"],
  ["COc1ccc2[nH]c(-c3ccc(OCC(=O)N4CCc5ccccc5C4)c(OC)c3)nc2c1", 5.09],
  ["COc1cc(-c2nc3cc(C)ccc3[nH]2)ccc1OCC(=O)N1CCc2ccccc21", 5.16],
  ["COc1ccc2[nH]c(-c3ccc(OCC(=O)N4CCCCC4)c(OC)c3)nc2c1", "< 4.70"],
  ["COc1cc(-c2nc3cc(F)ccc3[nH]2)ccc1OCC(=O)N1CCN(c2ncccn2)CC1", 4.86],
  ["COc1cc(-c2nc3ccccc3[nH]2)ccc1OCC(=O)N1CCc2ccccc21", "< 4.70"],
  ["COc1ccc2[nH]c(-c3ccc(OCC(=O)N4CCN(C(=O)OC(C)(C)C)CC4)c(OC)c3)nc2c1", "< 4.70"],
  ["COc1cc(-c2nc3ccccc3[nH]2)ccc1OCC(=O)N1CCCC1", "< 4.70"],
  ["COc1cc(-c2nc3ccccc3[nH]2)ccc1OCC(=O)N1CCc2ccccc2C1", "< 4.70"],
  ["COc1cc(-c2nc3cc(C)ccc3[nH]2)ccc1OCC(=O)N1CCOCC1", "< 4.70"],
  ["COC(=O)Nc1nc2cc(C(=O)c3cccs3)ccc2[nH]1 [NOCODAZOLE]", 5.23],
  ["COc1cc(-c2nc3cc(F)ccc3[nH]2)ccc1OCC(=O)N1CCCC1", "< 4.70"],
  ["COc1cc(-c2nc3cc(F)ccc3[nH]2)ccc1OCC(=O)N1CCCCC1", "< 4.70"],
  ["COc1ccc2[nH]c(-c3ccc(OCC(=O)N4CCCC4)c(OC)c3)nc2c1", "< 4.70"],
  ["COc1ccc2[nH]c(-c3ccc(OCC(=O)N4CCN(c5ncccn5)CC4)c(OC)c3)nc2c1", 5.08],
  ["COc1cc(-c2nc3ccccc3[nH]2)ccc1OCC(=O)N1CCN(c2ncccn2)CC1", "< 4.70"]
]}

Values from ChEMBL document CHEMBL5390218
